B1: TRIM29 (parent)
chain: RKCPVHGKTMELFCQTDQTCICYL

Variants of: B1
test: protein stability index of a GFP-peptide fusion (GPS, HEK-293T) (PSI 1-6); higher = more stable;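 also: lentivirally expressed fusions sorted by FACS into six bins by GFP to DsRed ratio, PSI derived from sequencing read proportions per bin multiplied by bin number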
condition.set: c terminus: a fixed tail appended
I'd be grateful if you could share measured protein stability index for these entries.
Numbers only.

Solved entries:
mutant_code=C20W endpoint_result=2.42
mutant_code=K2L endpoint_result=2.36
mutant_code=K2C endpoint_result=1.82
mutant_code=K8L endpoint_result=1.37

I need protein stability index for every entry listed below, if you could help.
1. R1A
2. Y23P
3. Y23N
4. R1K
5. C14T
6. Q15N
7. C20H
8. L24W

Response given:
1. 2.68
2. 5.16
3. 4.91
4. 2.22
5. 3.06
6. 2
7. 3.04
8. 4.47
